Tested on: HL-60
PROCEDURE TEXT: Antiproliferative activity against human HL-60 cells assessed as inhibition of cell growth incubated for 72 hrs by CellTiter96 Aqueous One Solution cell proliferation assay
Format: functional, cell-based
CONDITIONS USED: HL-60, 72 h
# strict inequality: IC50 < 2 µM yields t, everything else yields f

COMPOUND	CATEGORY LABEL
CCN(CC)c1ccc2cc(-c3nc4ccc(C5=NCCCN5)cc4s3)c(=O)oc2c1.Cl	f

Query: is_below(IC50, 2 µM) for O=c1oc2ccc(Br)cc2c(Cl)c1-c1nc2cc(C3=NCCN3)ccc2[nH]1 ?
Result: f

Query: Another compound to check: COC(=O)Nc1nc2cc(C(=O)c3cccs3)ccc2[nH]1 [NOCODAZOLE]
Result: t

Query: Same again, this time with Cc1ccc2oc(=O)c(-c3nc4cc(C5=NCCCN5)ccc4[nH]3)c(Cl)c2c1
Result: f

Query: Entry CCN(CC)c1ccc2cc(-c3nc4ccc(C5=NCCN5)cc4s3)c(=O)oc2c1 please
Result: f

Query: Also check CCN(CC)c1ccc2cc(-c3nc4cc(C5=NCCN5)ccc4[nH]3)c(=O)oc2c1.Cl
Result: f

Query: Try the compound O=c1oc2ccc(Br)cc2c(Cl)c1-c1nc2cc(C3=NCCCN3)ccc2[nH]1
Result: f

Query: Now the compound COc1cc([C@@H]2c3cc4c(cc3[C@@H](O[C@@H]3O[C@@H]5CO[C@@H](C)O[C@H]5[C@H](O)[C@H]3O)[C@H]3COC(=O)[C@H]23)OCO4)cc(OC)c1O [ETOPOSIDE]
Result: t

---

PROCEDURE TEXT: Cytotoxicity against dog MDCK cells assessed as inhibition of cell growth incubated for 72 hrs by CellTiter96 Aqueous One Solution cell proliferation assay
Format: toxicity, cell-based, Canis lupus familiaris
Recorded measurements of log10 of CC50 at 72 h, one per entry
The base-10 logarithm of CC50 at 72 h, taken with CC50 at 72 h in µM, is what appears here.

Answered examples (5):
> print(dat)
                                   molecule       measurement.type  measurement
1  O=c1oc2ccccc2c(Cl)c1-c1nc2cc(C3=NCCN3)ccc2[nH]1  log10 of CC50 at 72 h         1.96
2  CCN(CC)c1ccc2cc(-c3nc4ccc(C5=NCCN5)cc4s3)c(=O)oc2c1  log10 of CC50 at 72 h         1.81
3  NC(=O)c1ncn([C@@H]2O[C@H](CO)[C@@H](O)[C@H]2O)n1  log10 of CC50 at 72 h         1.83
4  Cc1ccc2oc(=O)c(-c3nc4cc(C5=NCCN5)ccc4[nH]3)c(Cl)c2c1  log10 of CC50 at 72 h         1.00
5  Cc1ccc2oc(=O)c(-c3nc4cc(C5=NCCCN5)ccc4[nH]3)c(Cl)c2c1  log10 of CC50 at 72 h         1.89

Query: Recorded log10 of CC50 at 72 h for CCN(CC)c1ccc2cc(-c3nc4cc(C5=NCCCN5)ccc4[nH]3)c(=O)oc2c1 , please?
Result: 1.64

Query: Follow-up entry: CCN(CC)c1ccc2cc(-c3nc4ccc(C5=NCCCN5)cc4s3)c(=O)oc2c1.Cl
Result: 0.62

Query: Lookup O=c1oc2ccc(Br)cc2c(Cl)c1-c1nc2cc(C3=NCCN3)ccc2[nH]1
Result: 1.77

Query: Entry O=c1oc2ccccc2c(Cl)c1-c1nc2cc(C3=NCCCN3)ccc2[nH]1 please
Result: 1.91
